From: patent US20200247894A1

- assayed system: T1, Macaca fascicularis IL2Rγ extracellular domain expressed with a C-terminal myc-myc-hexahistidine tag (Macaca fascicularis)
- T1 construct: also called mfIL-2Rg-MMH; mfIL-2RG-MMH
- T1 chain: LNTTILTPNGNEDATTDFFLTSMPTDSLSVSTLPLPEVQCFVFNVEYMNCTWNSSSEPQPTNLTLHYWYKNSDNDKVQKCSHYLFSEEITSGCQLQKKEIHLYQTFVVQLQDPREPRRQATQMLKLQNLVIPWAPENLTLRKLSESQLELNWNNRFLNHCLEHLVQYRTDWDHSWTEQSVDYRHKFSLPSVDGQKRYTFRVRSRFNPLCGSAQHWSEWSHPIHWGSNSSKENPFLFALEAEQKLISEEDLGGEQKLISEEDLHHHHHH
- procedure details: SPR, captured mAb, 25C, dissociation pH 6.0
- Experimental: The dissociation rate constant (kd) for binding of IL-2Rγ reagents to purified anti-IL2Rγ monoclonal antibodies was determined using a real-time surface plasmon resonance based Biacore 4000 biosensor platform. […] Dissociation rate constants (kd) in two running buffers were determined by fitting the real-time binding sensorgrams to a 1:1 binding model using Scrubber 2.0c curve-fitting software. […]
Please respond with reported t1/2 for every item in the list.
Report only the number, with the unit min understood.

In: Specify t1/2 for H4H12871P (antibody, human IgG4 S228P, kappa, V domains shown, anti-IL2Rgamma mAb expressed with human IgG4 Fc; also called REGN9434) VH: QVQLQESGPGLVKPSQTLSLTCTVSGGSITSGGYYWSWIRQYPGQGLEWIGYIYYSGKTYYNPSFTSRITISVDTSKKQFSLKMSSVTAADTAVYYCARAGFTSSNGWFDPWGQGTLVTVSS VL: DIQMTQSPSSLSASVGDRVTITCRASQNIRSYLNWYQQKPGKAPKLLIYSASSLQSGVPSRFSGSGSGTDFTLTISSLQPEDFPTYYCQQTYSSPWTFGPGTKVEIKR and stop.
Out: 10

In: Specify t1/2 for H4H12890P (antibody, human IgG4 S228P, kappa, V domains shown, anti-IL2Rgamma mAb expressed with human IgG4 Fc) VH: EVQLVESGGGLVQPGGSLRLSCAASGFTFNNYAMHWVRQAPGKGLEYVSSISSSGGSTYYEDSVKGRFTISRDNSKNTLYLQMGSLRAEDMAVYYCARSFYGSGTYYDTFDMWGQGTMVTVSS VL: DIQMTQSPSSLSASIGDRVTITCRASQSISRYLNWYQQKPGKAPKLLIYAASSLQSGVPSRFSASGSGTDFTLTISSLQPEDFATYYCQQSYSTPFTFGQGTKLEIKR and stop.
Out: 17

In: Specify t1/2 for H4H12886P (antibody, human IgG4 S228P, kappa, V domains shown, anti-IL2Rgamma mAb expressed with human IgG4 Fc) VH: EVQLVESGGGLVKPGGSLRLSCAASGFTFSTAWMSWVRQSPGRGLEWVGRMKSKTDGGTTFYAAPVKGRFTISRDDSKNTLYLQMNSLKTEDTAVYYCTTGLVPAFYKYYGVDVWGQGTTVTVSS VL: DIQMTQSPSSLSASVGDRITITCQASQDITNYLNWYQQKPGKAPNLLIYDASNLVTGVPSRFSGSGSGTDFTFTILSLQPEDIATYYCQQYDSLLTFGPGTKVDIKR and stop.
Out: 17

In: Specify t1/2 for H4H12874P (antibody, human IgG4 S228P, kappa, V domains shown, anti-IL2Rgamma mAb expressed with human IgG4 Fc) VH: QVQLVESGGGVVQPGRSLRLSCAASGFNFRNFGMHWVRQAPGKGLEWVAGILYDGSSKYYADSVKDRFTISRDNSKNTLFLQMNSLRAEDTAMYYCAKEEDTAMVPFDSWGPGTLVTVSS VL: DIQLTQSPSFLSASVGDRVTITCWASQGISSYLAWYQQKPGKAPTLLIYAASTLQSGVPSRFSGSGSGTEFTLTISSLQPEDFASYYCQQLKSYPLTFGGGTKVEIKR and stop.
Out: 16

In: Specify t1/2 for H4H13541P (antibody, human IgG4 S228P, kappa, V domains shown, anti-IL2Rgamma mAb expressed with human IgG4 Fc) VH: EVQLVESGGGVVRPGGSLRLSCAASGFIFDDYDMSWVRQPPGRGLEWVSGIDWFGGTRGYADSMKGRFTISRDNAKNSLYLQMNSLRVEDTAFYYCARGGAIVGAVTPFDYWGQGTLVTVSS VL: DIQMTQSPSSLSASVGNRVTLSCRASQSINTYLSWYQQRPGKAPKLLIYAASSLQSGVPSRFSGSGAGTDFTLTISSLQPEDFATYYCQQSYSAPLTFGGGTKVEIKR and stop.
Out: 23

In: Specify t1/2 for H4H12884P (antibody, human IgG4 S228P, kappa, V domains shown, anti-IL2Rgamma mAb expressed with human IgG4 Fc) VH: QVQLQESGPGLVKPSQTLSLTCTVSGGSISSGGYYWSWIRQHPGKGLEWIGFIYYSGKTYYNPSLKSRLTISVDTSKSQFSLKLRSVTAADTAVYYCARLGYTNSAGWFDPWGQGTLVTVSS VL: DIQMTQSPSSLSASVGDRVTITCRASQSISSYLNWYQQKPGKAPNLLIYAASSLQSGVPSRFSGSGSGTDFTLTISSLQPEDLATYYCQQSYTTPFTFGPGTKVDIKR and stop.
Out: 7

In: Specify t1/2 for H4H12899P (antibody, human IgG4 S228P, kappa, V domains shown, anti-IL2Rgamma mAb expressed with human IgG4 Fc) VH: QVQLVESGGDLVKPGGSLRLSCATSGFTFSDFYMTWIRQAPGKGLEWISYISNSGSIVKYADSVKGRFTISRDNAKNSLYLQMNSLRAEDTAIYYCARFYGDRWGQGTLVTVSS VL: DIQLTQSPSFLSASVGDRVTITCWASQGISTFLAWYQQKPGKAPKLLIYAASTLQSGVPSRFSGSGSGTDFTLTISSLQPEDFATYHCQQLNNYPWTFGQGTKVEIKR and stop.
Out: 16
